# TEST_TARGET: Tau
# ASSAY_NOTES: rat primary cortical neurons, FLIPR, 25 uM ASO
Bases are written 5' to 3'; sugars and linkages follow in the same order, as letters with counts (s phosphorothioate, o phosphodiester; PS: all linkages phosphorothioate). The collection does not say whether C is 5-methylated. l = locked nucleic acid (LNA); d = 2'-deoxy (DNA)
OUTCOME_MEASURE: calcium oscillation score

| SEQUENCE_CONTENT | TEST_TARGET | OUTCOME_MEASURE | OBSERVED_MEASUREMENT |
| --- | --- | --- | --- |
| ACTTTATTTCCAAATTCACT (sugars l5 d10 l5, PS) | Tau | calcium oscillation score | 98 % of control |
| AAATATCCTTACCATCCTAT (sugars l2 d15 l3, PS) | Tau | calcium oscillation score | 78.8 % of control |
| AAGTGATTAACCAATTAACC (sugars l3 d14 l3, PS) | Tau | calcium oscillation score | 57 % of control |
| AATAGCAAACAGGATA (sugars l3 d10 l3, PS) | Tau | calcium oscillation score | 82.4 % of control |
| CTTACTGATCATAATCC (sugars l4 d9 l4, PS) | Tau | calcium oscillation score | 85.1 % of control |
| AACATTCTCACCAAACCCA (sugars l3 d14 l2, PS) | Tau | calcium oscillation score | 78.4 % of control |
